System: Streptococcus bovis A-5169
assay.method.text: In vitro antibacterial activity, agar dilution MIC
Format: cell-based
stated.conditions: code JJ, BHI agar, 35-37° C., 20 to 24 hours, unit assumed
Catalogue of compounds with associated Antibacterial Activity (MIC)

Known results for compounds:
{"columns": ["compound", "Antibacterial Activity (MIC)"],
 "data": [
  ["CC[C@H]1OC(=O)[C@H](C)[C@@H](O[C@H]2C[C@@](C)(OC)[C@@H](O)[C@H](C)O2)[C@H](C)[C@@H](O[C@@H]2O[C@H](C)C[C@H](N(C)C)[C@H]2O)[C@](C)(O)C[C@@H](C)C(=O)[C@H](C)[C@@H](O)[C@]1(C)O [Ery. A standard, Erythromycin A, reference compound]", "0.02 µg/mL"],
  ["CCC1OC(=O)C(C)(CC=Cc2ccccc2)C(=O)C(C)C(OC2OC(C)CC(N(C)C)C2O)C(C)(OC)CC(C)C(=O)C(C)C2NC(=O)OC12C (stereo not shown)", "12.5 µg/mL"],
  ["C#CCOC1(C)CC(C)C(=O)C(C)C2NC(=O)OC2(C)C(CC)OC(=O)C(C)(CC=Cc2ccccc2)C(=O)C(C)C1OC1OC(C)CC(N(C)C)C1O (stereo not shown)", "0.78 µg/mL"]
]}

stdin: Specify reported Antibacterial Activity (MIC) for the compound shown: CCC1OC(=O)C(C)(O)C(=O)C(C)C(OC2OC(C)CC(N(C)C)C2O)C(C)(OCC(O)CO)CC(C)C(=O)C(C)C2NC(=O)OC12C (stereo not shown)
stdout: 50 µg/mL

stdin: Specify reported Antibacterial Activity (MIC) for the compound shown: CCC1OC(=O)C(C)(O)C(=O)C(C)C(OC2OC(C)CC(N(C)C)C2O)C(C)(OCC=Cc2cnc3ccccc3c2)CC(C)C(=O)C(C)C2NC(=O)OC12C (stereo not shown)
stdout: 0.02 µg/mL

stdin: Specify reported Antibacterial Activity (MIC) for the compound shown: CCC1OC(=O)C(C)(O)C(=O)C(C)C(OC2OC(C)CC(N(C)C)C2O)C(C)(OC)CC(C)C(=O)C(C)C2N(CCCCc3ccccc3)C(=O)OC12C (stereo not shown)
stdout: 0.2 µg/mL

stdin: Specify reported Antibacterial Activity (MIC) for the compound shown: C=CCC1(C)C(=O)OC(CC)C2(C)OC(=O)NC2C(C)C(=O)C(C)CC(C)(OCC=Cc2cnc3ccccc3c2)C(OC2OC(C)CC(N(C)C)C2O)C(C)C1=O (stereo not shown)
stdout: 0.05 µg/mL

----------
Tested on: Mycobacterium smegmatis ATCC 114
assay.method.text: In vitro antibacterial activity, agar dilution MIC
Assay type: cell-based
stated.conditions: code UU, BHI agar, 35-37° C., 20 to 24 hours, unit assumed
measured.property: Antibacterial Activity (MIC) (µg/mL)
Field format: number, assumed µg/mL, no unit text.

Known results for compounds:
{"columns": ["compound", "measured.property", "unit.abbreviation", "reading"],
 "data": [
  ["C=CCC1(C)C(=O)OC(CC)C2(C)OC(=O)NC2C(C)C(=O)C(C)CC(C)(OCC=Cc2cnc3ccccc3c2)C(OC2OC(C)CC(N(C)C)C2O)C(C)C1=O (stereo not shown)", "Antibacterial Activity (MIC)", "µg/mL", 3.1],
  ["C#CCOC1(C)CC(C)C(=O)C(C)C2NC(=O)OC2(C)C(CC)OC(=O)C(C)(CC=Cc2ccccc2)C(=O)C(C)C1OC1OC(C)CC(N(C)C)C1O (stereo not shown)", "Antibacterial Activity (MIC)", "µg/mL", 12.5],
  ["CC[C@H]1OC(=O)[C@H](C)[C@@H](O[C@H]2C[C@@](C)(OC)[C@@H](O)[C@H](C)O2)[C@H](C)[C@@H](O[C@@H]2O[C@H](C)C[C@H](N(C)C)[C@H]2O)[C@](C)(O)C[C@@H](C)C(=O)[C@H](C)[C@@H](O)[C@]1(C)O [Ery. A standard, Erythromycin A, reference compound]", "Antibacterial Activity (MIC)", "µg/mL", 3.1]
]}

stdin: Specify reported Antibacterial Activity (MIC) for the compound shown: CCC1OC(=O)C(C)(O)C(=O)C(C)C(OC2OC(C)CC(N(C)C)C2O)C(C)(OC)CC(C)C(=O)C(C)C2N(CCCCc3ccccc3)C(=O)OC12C (stereo not shown)
stdout: 3.1

stdin: Specify reported Antibacterial Activity (MIC) for the compound shown: CCC1OC(=O)C(C)(O)C(=O)C(C)C(OC2OC(C)CC(N(C)C)C2O)C(C)(OCC=Cc2cnc3ccccc3c2)CC(C)C(=O)C(C)C2NC(=O)OC12C (stereo not shown)
stdout: 3.1

stdin: Specify reported Antibacterial Activity (MIC) for the compound shown: CCC1OC(=O)C(C)(CC=Cc2ccccc2)C(=O)C(C)C(OC2OC(C)CC(N(C)C)C2O)C(C)(OC)CC(C)C(=O)C(C)C2NC(=O)OC12C (stereo not shown)
stdout: 25
